- Test system: MS2 coat protein
- measurement notes: apparent KD of MS2 coat protein; designed switch direction (-1 OFF switch, 1 ON switch): -1; higher = weaker reporter binding
- applied conditions: input ligand: FMN 200 uM
Please go through the items and note down their apparent KD of MS2 coat protein.
Write it as a number; the unit nM goes unstated.

Looking up CCUACUUACUAGGAUAUCAGAGUCGAAAGACUCUGAGAAGGAGUAACAUGAGGAUCACCCAUGUGUCCUAUAGG [Mod of Eli 11 - Jieux - Exclusion 6] (Eterna round: R97, puzzle: Exclusion 6) , I see its apparent KD of MS2 coat protein listed as 52.2

Looking up CACCGGUGAGACAACAUGAGGAUCACCCAUGUGAACAGCUCACAGGAUAUCCAGGCACGAAAGAAGGAGAAGGGUGGCUGACUC [Veuson] (Eterna round: R96, puzzle: Exclusion NG 3) , I see its apparent KD of MS2 coat protein listed as 17.2

Looking up AAGAUACAUGAGGAUCACCCAUGUGAGGAUAUGAGUCAGUCACGGUGACGUGGCUGACUCAGAAGGCACAAAGG [JL-ex1-4.36 salish99 mod] (Eterna round: R97, puzzle: Exclusion 1) , I see its apparent KD of MS2 coat protein listed as 176

Looking up ACACGGCGAGGAUAUACAUGAGGAUCACCCAUGUGUCGGCCGGUACGGUAGCACUAGUGUAGAAGGCGCAUUGG [EX3 #38] (Eterna round: R97, puzzle: Exclusion 3) , I see its apparent KD of MS2 coat protein listed as 28.1

Looking up GCGACAGCGGUUAGGAUAUAUGUUAGGACGUAGAUAUAGAAGGAACAUGAGGAUCACCCAUGUUUAAAAUGGGA [Eternabot (L1) Solution 71] (Eterna round: R97, puzzle: Brourd's mod of Exclusion 4) , I see its apparent KD of MS2 coat protein listed as 69.5

Looking up UUAAAUCAUGUAGGAUAUGCGUGGCGAAGCUAUGCAGAAGGACAUGAGGAUCACCCAUGUUCUUCGGUCUGCGUACAGAUCGAA [JL ENG1 1.07] (Eterna round: R96, puzzle: Exclusion NG 1) , I see its apparent KD of MS2 coat protein listed as 316

Looking up AGAUGCUCGAGUCGACAUGAGGAUCACCCAUGUACAGUUAGUGAGGAUAUCGGAGACACAUAGUAUGAGAAGGCGCGAACGUGA [Ex NG3 #15] (Eterna round: R96, puzzle: Exclusion NG 3) , I see its apparent KD of MS2 coat protein listed as 224

Looking up ACUAGGCGAGGAUAUACAUGCUUAACGCAGGAAAAGCUGCGACAUGAGGAUCACCCAUGUAGAAGGCGCAAAUA [Xege] (Eterna round: R96, puzzle: Exclusion 2) , I see its apparent KD of MS2 coat protein listed as 78.1

Looking up AGACACUGAGGAUAUACAUGAGGAUCACCCAUGUAUGGGAAAUACGAAUGUAUUAGUUGUAGAAGGUGGUGUCG [Eternabot (L1) Solution 10] (Eterna round: R97, puzzle: Exclusion 3) , I see its apparent KD of MS2 coat protein listed as 183

Looking up CUACUGAAGCUUUGCUUUAGUCGUACAUGAGGAUCACCCAUGUAGGAUAUGGUAGGCUUUGCUUACUAGAAGGAUAGAGUGAUC [salish99_ExNG3_r04_601] (Eterna round: R96, puzzle: Exclusion NG 3) , I see its apparent KD of MS2 coat protein listed as 80.9

Looking up GACCAGGUAGGAUAUGCAGGGUAGGACUUGAGGAUCACCCAAGUGGCCAAAGUGCGUCCCGCAGAAGGGCCGAACC [Teararatbi] (Eterna round: R97, puzzle: Exclusion 5) , I see its apparent KD of MS2 coat protein listed as 356

Looking up CCGACGUGAGGAUAUCCAUCUGGAUCAGACAAGAUCCUGAUGGAGAAGGCACAUGAGGAUCACCCAUGUUACGG [Mat - Exclusion 4 - Eli Mod - D59] (Eterna round: R97, puzzle: Exclusion 4) , I see its apparent KD of MS2 coat protein listed as 738

Looking up GCACGGAUUGUAGGAUAUCUGUGCGAUUAGCUCAGAGAAGGACACAUGAGGAUCACCCAUGUUACCUCAAUUGGCCUUCCGUGC [Eli exng1 - 031] (Eterna round: R96, puzzle: Exclusion NG 1) , I see its apparent KD of MS2 coat protein listed as 128

Looking up CUGAUGUGAGGAUAUCGGGCUACGGCCAGGCCGCUAGCAUUCGAGAAGGCACAUGAGGAUCACCCAUGUGAGAA [Laquzara] (Eterna round: R96, puzzle: Exclusion 4) , I see its apparent KD of MS2 coat protein listed as 230

====

Please go through the items and note down their apparent KD of MS2 coat protein.
- Tested on: MS2 coat protein
- measurement notes: apparent KD of MS2 coat protein; designed switch direction (-1 OFF switch, 1 ON switch): -1; higher = weaker reporter binding
- applied conditions: input ligand: microRNA oligo, concentration not stated
Write it as a number; the unit nM goes unstated.

Record UACAUGAGGAUCACCCAUGUUUUGUCGUGUAUGGUAUUUAUCUAGGAUAUCAUUUUAUUGAGUUAUGAGAAGGAGAAUAUUAAU [JMF's solution 91] (Eterna round: R96, puzzle: Exclusion NG 3) / MS2 coat protein, apparent KD of MS2 coat protein recorded as 28.5

Record UCGCUCCGUGUAGGAUAUCGUUGUAUUAUGCGGCGAGAAGGACAUGAGGAUCACCCAUGUAUGUUAUUAUCACGCGUGGCGCAA [Design 66] (Eterna round: R96, puzzle: Exclusion NG 1) / MS2 coat protein, apparent KD of MS2 coat protein recorded as 14.8

Record AAGGGUGCCUUUAGAACGACAUGAGGAUCACCCAUGUAGACUGAGGAUAUCUACUCCUAAGGACCGGAGAAGGCAGUGUAAUGC [Ex NG3 #63] (Eterna round: R96, puzzle: Exclusion NG 3) / MS2 coat protein, apparent KD of MS2 coat protein recorded as 41.4

Record UGCGAAGAGUGAGGAUAUGUGCGACAAAGUUGCACAGAAGGCACAUGAGGAUCACCCAUGUAAGCUAGGUCGAAAGACCUAGCG [Omei Exc(NG)1 Av5] (Eterna round: R96, puzzle: Exclusion NG 1) / MS2 coat protein, apparent KD of MS2 coat protein recorded as 40.6

Record AGCGAAUAGACAGGAUAUGAGAAUAGAUAGAGCUCAGAAGGGUCACAUGAGGAUCACCCAUGUGAAGUCUUGAGGCUGCGUGGU [Prohibition 18 - Jieux - Exclusion NG 1] (Eterna round: R96, puzzle: Exclusion NG 1) / MS2 coat protein, apparent KD of MS2 coat protein recorded as 13.4

Record CCAGCGUAUGUGAGGAUAUGCUGGUCCUUGGAUCAGCAGAAGGCACAUGAGGAUCACCCAUGUGAGAGCGUUGG [JL bmx4 3.37] (Eterna round: R96, puzzle: Brourd's mod of Exclusion 4) / MS2 coat protein, apparent KD of MS2 coat protein recorded as 25.6

Record UCUCGUUGGCAAGGAUAUCCUACAUUGUUCUGGCCCGGGCAUGCUACAUGAGGAUCACCCAUGUGGGAGAAGGUGCGUCAUUGC [Design 23] (Eterna round: R96, puzzle: Exclusion NG 2) / MS2 coat protein, apparent KD of MS2 coat protein recorded as 77.4

====

- System: K4 kissing-loop RNA reporter;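 further: bound reporter read as fluorescence of individual clusters on recovered sequencing chips by microscopy, with normalized cluster intensities fitted with a binding model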
- measurement notes: apparent KD of K4 kissing-loop reporter; higher = weaker reporter binding
- applied conditions: Eterna round: R107; input ligand: tryptophan 2.4 mM
Quick rule for you: apparent KD of K4 kissing-loop reporter at 300 nM or higher means label 1, lower means label 0.

Exercise: Reported apparent KD of K4 kissing-loop reporter at or above 300 nM? AUAGGAGUGAUGUUCCUUAGUUUCUCCGAUACCAGUAUGGAAACAUACCCUUGGCAGCGGGAGACCGCUGAUUAGGAAACUAGUC [Theophylline A K4 8]
Key: label 0

Exercise: Reported apparent KD of K4 kissing-loop reporter at or above 300 nM? AAAUAAAGCAGUCACCCAGUGAUGUUGGAAGGAGCGUGCGAAAGCACAGGUAGGUCGCCGAUAAAGGACAAAGUCCGUGGCUGCA [#SwitchBubble 29 #K4Early]
Key: label 0

Exercise: Reported apparent KD of K4 kissing-loop reporter at or above 300 nM? CGCAAGCAGCCAGUGAUGUUGGCCGCCUUGCGAGGACCGGUACGGCCGCCACUCGAAGGCGGCUACUGAUAAACCGUCUAACGGA [KL-XTryp-A9]
Key: label 0

Exercise: Reported apparent KD of K4 kissing-loop reporter at or above 300 nM? AACUGUCAAGGACAACAUUACUGAGGUGAUACCAGCAUCGAAAGAUGCCCUUGGCAGCACCAACUUGCAGUGAUGUUGCAAGUAA [Design6]
Key: label 0

Exercise: Reported apparent KD of K4 kissing-loop reporter at or above 300 nM? UAGUCUCGAGUCUGAGAUUACGGGUCAGAUACCAGACUAGAGAUAGUCCCUUGGCAGCUGAAGUUCAGUGAUGUUGAACGGAUUA [Theo B SS t10a]
Key: label 1

Exercise: Reported apparent KD of K4 kissing-loop reporter at or above 300 nM? AGGAGUGAUGUUCCUACAUAGACGGUCCAACGAGGACCGGUACGGCCGCCACUCGCGACCCAGUGAUGUUGGGAUUCACCGUACA [Exclusion Tryptophan A Gf 14]
Key: label 1

Exercise: Reported apparent KD of K4 kissing-loop reporter at or above 300 nM? "GGUAGCAUGGCGGCCGCCACUUUGCACCUUUUCUUUUCUUUUGGUGCUUCACGAGUGAUGUUCGUAAGGACCGGGCCAUGCUACC"
Key: label 0

// data source = the supplement of paper PMC9170038
